Here, each record is paired with measured Kd data.
- experimental-target: T1, human PACAP27 (human, C-terminal leucine is amidated; 125I-labelled in Example 10)
- T1 peptide: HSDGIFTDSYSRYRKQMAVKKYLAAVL
- protocol-summary: SPR, Ab immobilised
Report as a plain number; the unit nM is understood.

binder	assay-endpoint	meas-value
anti-PACAP antibody Ab8 (antibody, human IgG1, kappa, N297A, V domains shown, full-length rabbit/human chimeric antibody) VH: LEQSGGGAEGGLVKPGGSLELCCKASGFSLTTSHWMCWVRQAPGKGLNWIGCISAGSGDADYATWVDAQFTLSRDIDQNTGCLQLNSLTPADTAMYYCTINFELWGQGTLVTVSS VL: AQVLTQTPSSVSAAVGGTVTINCQSSPSVYSSYLSWFQQKPGQPPKFLIYEASKLASGVPSRFSGSGSGTQFTLTISGVQCSDAATYYCLGAYDCGRTDCHAFGGGTEVVVKR	Kd	0.14

The measured Kd associated with anti-PACAP antibody Ab23 (antibody, human IgG1, kappa, N297A, V domains shown, full-length rabbit/human chimeric antibody; PACAP38 specific) VH: QSVEESGGRLVTPGTPLTLTCTVSGFSLNNYAMSWVRQAPGKGLEWIGIMGVNDITYYASWAKGRFTISKTSTTVDLKMTSLTTEDTATYFCTREIRDDGDSSDKLWGPGTLVTVSS VL: AIKMTQTPSSVSAAVGGTVTINCQASEDIYTNLAWYQQKPGQPPNLLIYDASDLASGVPSRFSGSGDGTQFTLTISAVQCEDAATYYCQGVAWSSNTGYGSAFGGGTEVVVKR reads 35
